- Experimental Protocol: chemical genetic growth profiling, strain panel (AID 1159580);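 note: tested at 20 µM; growth read once vehicle control cultures reached saturation at 30 °C; 1 = growth at the plate median or of vehicle wells; lower values mean less growth of the strain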
- Measurement Context: S. cerevisiae deletion strains, growth OD, locus YKL068W, stronger effect = lower value
Out of some 5,500 compounds screened, about 2,000 (36%) were called active. Roughly 18% stayed inconclusive and do not appear here. Some of the results follow.
Parameter: normalized growth. Scope: all listed entries.
Quantity Name: normalized growth

INSERT INTO assay_data (compound, quantity_name, reported_measurement) VALUES
  ('CN1CCc2cccc3c2C1Cc1ccc(O)c(O)c1-3 (stereo unspecified)', 'normalized growth', 0.996),
  ('CCn1cc(C(=O)O)c(=O)c2cnc(N3CCNCC3)nc21', 'normalized growth', 0.994),
  ('CC12CCCC(O)(C1)C1CC(C)(C)C1CC2 (stereo unspecified)', 'normalized growth', 1.01),
  ('O=c1cccc2n1C[C@H]1CNCC2C1', 'normalized growth', 0.98),
  ('O=C(O)CCCCCCCCCCCCC1C=CCC1 (stereo unspecified)', 'normalized growth', 1.01),
  ('CC[C@]12CCCN3CCc4c(n(c5ccccc45)[C@](O)(C(=O)OC)C1)[C@@H]32', 'normalized growth', 0.987),
  ('O=C1CN(/N=C\c2ccc([N+](=O)[O-])o2)C(=O)N1', 'normalized growth', 1),
  ('CC(C)C1=CC2=CCC3[C@](C)(CCC[C@]3(C)C(=O)O)C2CC1 (stereo partly specified)', 'normalized growth', 0.971),
  ('COc1ccc(/C=C/c2cc(O)cc(O)c2)cc1', 'normalized growth', 0.982),
  ('COc1ccc(/C=C/c2cc(O)cc(O[C@@H]3O[C@H](CO)[C@@H](O)[C@H](O)[C@H]3O)c2)cc1O', 'normalized growth', 1.02),
  ('NC(=O)c1cnccn1', 'normalized growth', 1),
  ('CC[C@@H]1[C@@H](O)N2C3C[C@H]1C1C(O)[C@]4(C[C@@H]12)c1ccccc1N(C)[C@@H]34 (stereo partly specified)', 'normalized growth', 0.987),
  ('COc1ccc2c(c1O)-c1c(OC)c(OC)cc3c1[C@H](C2)N(C)CC3', 'normalized growth', 1),
  ('COc1ccc(/C=C/C(=O)O)cc1OC', 'normalized growth', 0.988),
  ('S=c1[nH]c2ccccc2s1', 'normalized growth', 1.02),
  ('COc1cc2c(cc1O)CC1c3c(cc(O)c(OC)c3-2)CCN1C (stereo unspecified)', 'normalized growth', 1.01),
  ('CCOP(=S)(OCC)SCSCC', 'normalized growth', 1.01),
  ('CC[C@]12CCCN3CCc4c(n(c5ccccc45)C(=O)C1)[C@@H]32', 'normalized growth', 0.981),
  ('CO[C@@H]1C[C@@H](C[C@H]2CC[C@H](C)[C@H]([C@@H](C)C(=O)O)O2)O[C@]2(O[C@](C)([C@H]3CC[C@@](C)(C4O[C@@H](C5O[C@@](O)(CO)[C@H](C)C[C@@H]5C)C[C@@H]4C)O3)C[C@H]2C)[C@@H]1C (stereo partly specified)', 'normalized growth', 1.01),
  ('OCC(S)CS (stereo unspecified)', 'normalized growth', 0.984),
  ('O=c1ccn([C@@H]2O[C@H](COP(=O)(O)OP(=O)(O)OP(=O)(O)O)[C@@H](O)[C@H]2O)c(=O)[nH]1', 'normalized growth', 1.02);

====

Parameter: normalized growth. Scope: all listed entries.
- Experimental Protocol: chemical genetic growth profiling, strain panel (AID 1159580)
- Measurement Context: S. cerevisiae deletion strains, growth OD, locus YDL134C, strain PPH21, stronger effect = lower value
Screen size: about 5,500 compounds; about 2,000 (36%) were called active. About 18% were inconclusive and are not listed. This is one part of the list.
Quantity Name: normalized growth

INSERT INTO assay_data (compound, quantity_name, reported_measurement) VALUES
  ('O=C1c2cccc3c(SCCO)ccc(c23)C(=O)N1CCc1ccccn1', 'normalized growth', '1.01 (inactive)'),
  ('O=C(CC(Nc1ccccc1)c1ccccc1)C1CC1 (centres undefined)', 'normalized growth', '0.982 (inactive)'),
  ('COP(=S)(OC)Oc1ccc(SC)c(C)c1', 'normalized growth', '1.02 (inactive)'),
  ('CCOP(=S)(OCC)SCSP(=S)(OCC)OCC', 'normalized growth', '0.986 (inactive)');

====

- Experimental Protocol: chemical genetic growth profiling, strain panel (AID 1159580);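 note: tested at 20 µM; growth read once vehicle control cultures reached saturation at 30 °C; 1 = growth at the plate median or of vehicle wells; lower values mean less growth of the strain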
- Measurement Context: S. cerevisiae deletion strains, growth OD, locus YLR320W, strain mms22, stronger effect = lower value
Among all 5,500 compounds or so, about 2,000 (36%) were called active. Not shown: some 18% with an inconclusive outcome. The list shows a part of the results.
Quantity Name: normalized growth

INSERT INTO measurements (compound, reported_measurement) VALUES
  ('CC1=C(/C=C/C(C)=C/C=C/C(C)=C/C=C/C=C(C)/C=C/C=C(C)/C=C/C2=C(C)CCCC2(C)C)C(C)(C)CCC1', 0.994),
  ('C[C@]12CCC3c4ccc(OS(=O)(=O)O)cc4CCC3C1CCC2=O (stereo partly specified)', 1.01),
  ('Nc1nccs1', 1),
  ('CC1=C(/C=C/C(C)=C/C=C/C(C)=C/CO)C(C)(C)CCC1', 0.972),
  ('Nc1ccc(S(=O)(=O)Nc2nccs2)cc1', 0.992),
  ('O=C(O)c1cc(=O)c2c(OCC(O)COc3cccc4oc(C(=O)O)cc(=O)c34)cccc2o1', 0.985);

====

- Experimental Protocol: chemical genetic growth profiling, strain panel (AID 1159580);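 note: tested at 20 µM; growth read once vehicle control cultures reached saturation at 30 °C; 1 = growth at the plate median or of vehicle wells; lower values mean less growth of the strain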
- Measurement Context: S. cerevisiae deletion strains, growth OD, locus YOR061W, strain CKA2, stronger effect = lower value
In all, about 5,500 compounds went through this assay and about 2,000 (36%) were called active. Roughly 18% stayed inconclusive and do not appear here. The list shows a part of the results.
Parameter: normalized growth. Scope: all listed entries.
Quantity Name: normalized growth

INSERT INTO assay_data (compound, quantity_name, reported_measurement) VALUES
  ('O=C(O)c1cc(=O)c2c(OCC(O)COc3cccc4oc(C(=O)O)cc(=O)c34)cccc2o1', 'normalized growth', 1.01),
  ('C[C@](N)(Cc1ccc(O)c(O)c1)C(=O)O', 'normalized growth', 0.938),
  ('O=C1CN(/N=C\c2ccc([N+](=O)[O-])o2)C(=O)N1', 'normalized growth', 0.998),
  ('CC[C@@H]1[C@@H](O)N2C3C[C@H]1C1C(O)[C@]4(C[C@@H]12)c1ccccc1N(C)[C@@H]34 (some centres undefined)', 'normalized growth', 0.97),
  ('O=C1N=C(O)CN1/N=C\c1ccc(-c2ccc([N+](=O)[O-])cc2)o1', 'normalized growth', 1.02),
  ('COc1ccc(-c2cc(C(F)F)nn2-c2ccc(S(N)(=O)=O)cc2)cc1F', 'normalized growth', 1),
  ('S=c1[nH]c2ccccc2s1', 'normalized growth', 0.985),
  ('CC[C@@]1(C2O[C@@H](C3O[C@@](O)(CC)[C@H](C)C[C@@H]3C)C[C@@H]2C)CC[C@H]([C@]2(C)CCC3(C[C@H](O)[C@@H](C)[C@@H]([C@H](C)[C@@H](OC)[C@H](C)C(=O)O)O3)O2)O1 (some centres undefined)', 'normalized growth', 1),
  ('NC(=O)N/N=C\c1ccc([N+](=O)[O-])o1', 'normalized growth', 0.994),
  ('CN(Cc1cc(Br)cc(Br)c1N)C1CCCCC1', 'normalized growth', 1.01),
  ('COc1ccccc1N1CCNCC1', 'normalized growth', 1.01),
  ('O=C(Nc1ccccn1)c1cc(-c2ccccc2)c(C(F)(F)F)s1', 'normalized growth', 0.95),
  ('O=c1cccc2n1C[C@H]1CNCC2C1', 'normalized growth', 1.01),
  ('CC(Cc1ccc(O)c(O)c1)(NN)C(=O)O (centres undefined)', 'normalized growth', 1);

====

- Experimental Protocol: chemical genetic growth profiling, strain panel (AID 1159580);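 note: tested at 20 µM; growth read once vehicle control cultures reached saturation at 30 °C; 1 = growth at the plate median or of vehicle wells; lower values mean less growth of the strain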
- Measurement Context: S. cerevisiae deletion strains, growth OD, locus YBL061C, strain skt5, stronger effect = lower value
Screen size: about 5,500 compounds; about 2,000 (36%) were called active. About 18% were inconclusive and are not listed. The list shows a part of the results.
Quantity Name: normalized growth

INSERT INTO results (molecule, reported_measurement) VALUES
  ('CCOC(=O)C1=C[C@]2(CC)CCCN3CCc4c(n1c1ccccc41)[C@@H]32', 1.02),
  ('Nc1nc(N)c2nc(CNc3ccc(C(=O)NC(CCC(=O)O)C(=O)O)cc3)cnc2n1 (stereo not drawn)', 1),
  ('COc1ccc2c(c1O)-c1c(OC)c(OC)cc3c1[C@H](C2)N(C)CC3', 0.99),
  ('O=C(O)CCCCC1SCC2NC(=O)NC21 (stereo not drawn)', 0.989),
  ('CC1=CC(=O)CC(C)(C)C1(O)/C=C/C(C)=C\C(=O)O (stereo not drawn)', 1.02),
  ('C[C@H](COc1ccccc1)N[C@H](C)[C@H](O)c1ccc(O)cc1', 1.01),
  ('CC1=C(/C=C/C(C)=C/C=C/C(C)=C\C(=O)O)C(C)(C)CCC1', 0.984),
  ('Cc1ccc(C(C)C)cc2c(C)ccc1-2', 1);
